System: Influenza A virus
Experiment: Antiviral activity against Influenza A virus A/udorn/1972 (H3N2) infected in MDCK cells assessed as inhibition of virus-induced cytopathic effects after 3 days by CCK-8 assay
Format: functional, organism-based
Details: 72 h
pIC50: −log10 of the molar value.
PROPERTY_LABEL: pIC50

{"COMPOUND": "COc1ccccc1-n1nnc(C)c1C(=O)N1CCN(c2ccc([N+](=O)[O-])cc2Cl)CC1", "RECORDED_MEASUREMENT": 5.93}
{"COMPOUND": "Cc1onc(-c2ccccc2)c1C(=O)N1CCN(c2ccc([N+](=O)[O-])cc2Cl)CC1 [NUCLEOZIN]", "RECORDED_MEASUREMENT": 6.47}
